- target.entity: Ecdysone receptor (Anthonomus grandis, UniProt B8RG26+Q4W6C8)
- Sequence (B8RG26 whole entry): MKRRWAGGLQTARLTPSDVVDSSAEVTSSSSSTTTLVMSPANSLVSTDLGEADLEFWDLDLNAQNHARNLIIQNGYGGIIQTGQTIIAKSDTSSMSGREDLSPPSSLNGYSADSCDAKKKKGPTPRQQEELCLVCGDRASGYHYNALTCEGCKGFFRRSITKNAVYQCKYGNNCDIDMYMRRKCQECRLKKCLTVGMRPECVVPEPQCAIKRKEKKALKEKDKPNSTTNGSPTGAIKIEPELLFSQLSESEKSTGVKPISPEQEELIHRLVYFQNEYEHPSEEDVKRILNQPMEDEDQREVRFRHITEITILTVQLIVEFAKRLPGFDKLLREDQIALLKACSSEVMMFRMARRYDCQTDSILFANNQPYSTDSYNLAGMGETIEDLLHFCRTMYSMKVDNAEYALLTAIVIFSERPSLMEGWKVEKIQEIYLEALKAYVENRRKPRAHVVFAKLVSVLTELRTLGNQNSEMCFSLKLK
- Sequence (Q4W6C8 whole entry): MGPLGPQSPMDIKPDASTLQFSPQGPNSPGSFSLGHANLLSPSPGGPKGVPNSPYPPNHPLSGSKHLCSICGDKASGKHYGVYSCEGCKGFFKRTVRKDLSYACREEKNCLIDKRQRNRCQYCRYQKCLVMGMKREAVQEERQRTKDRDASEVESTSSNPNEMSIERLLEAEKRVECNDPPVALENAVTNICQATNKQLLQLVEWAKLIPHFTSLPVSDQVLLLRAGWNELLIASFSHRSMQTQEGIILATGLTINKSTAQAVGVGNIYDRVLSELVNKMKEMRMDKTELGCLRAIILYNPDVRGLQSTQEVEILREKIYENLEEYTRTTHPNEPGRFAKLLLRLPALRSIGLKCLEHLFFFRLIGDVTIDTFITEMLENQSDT
- assay.remarks: Binding affinity to Anthonomus grandis ecdysone receptor (EcR)
metric: pKi
# reply with the number alone; pKi is -log10 of concentration in mol/L

Q) GET /values?readout=pKi&item= CCc1ccc(C(=O)NN(C(=O)c2cc(C)cc(C)c2)C(C)(C)C)cc1 [TEBUFENOZIDE]
A) 4.90

###

- target.entity: Ecdysone receptor (Locusta migratoria, UniProt O97095+Q6V7U7)
- Sequence (O97095 whole entry): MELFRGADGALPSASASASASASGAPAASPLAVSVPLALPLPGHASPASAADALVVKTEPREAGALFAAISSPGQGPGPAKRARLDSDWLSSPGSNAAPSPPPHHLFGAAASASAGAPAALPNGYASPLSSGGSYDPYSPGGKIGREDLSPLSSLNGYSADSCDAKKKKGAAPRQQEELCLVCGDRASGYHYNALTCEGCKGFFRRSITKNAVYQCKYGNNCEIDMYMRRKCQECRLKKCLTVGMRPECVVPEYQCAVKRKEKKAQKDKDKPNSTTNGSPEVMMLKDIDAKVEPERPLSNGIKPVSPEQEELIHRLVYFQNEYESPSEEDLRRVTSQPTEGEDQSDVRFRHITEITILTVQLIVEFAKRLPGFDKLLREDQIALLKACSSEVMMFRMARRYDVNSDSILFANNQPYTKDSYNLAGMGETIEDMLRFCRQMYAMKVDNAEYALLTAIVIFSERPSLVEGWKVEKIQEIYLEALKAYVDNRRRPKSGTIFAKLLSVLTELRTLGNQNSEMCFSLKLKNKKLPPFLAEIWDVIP
- Sequence (Q6V7U7 whole entry): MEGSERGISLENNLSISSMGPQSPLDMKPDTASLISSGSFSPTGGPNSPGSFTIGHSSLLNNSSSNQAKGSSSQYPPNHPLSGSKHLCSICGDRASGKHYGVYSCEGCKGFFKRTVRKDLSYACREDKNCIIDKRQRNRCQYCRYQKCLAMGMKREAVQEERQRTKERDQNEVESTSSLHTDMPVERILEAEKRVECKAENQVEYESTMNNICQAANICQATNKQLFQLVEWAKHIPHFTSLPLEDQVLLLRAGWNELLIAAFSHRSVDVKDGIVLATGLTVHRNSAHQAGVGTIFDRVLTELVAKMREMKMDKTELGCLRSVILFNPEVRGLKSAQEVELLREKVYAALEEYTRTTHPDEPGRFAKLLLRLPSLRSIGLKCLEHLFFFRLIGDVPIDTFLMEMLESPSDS
- assay.remarks: Binding affinity to Locusta migratoria ecdysone receptor (EcR)
metric: pKi
# reply with the number alone; pKi is -log10 of concentration in mol/L

Q) What pKi appears in the records for this molecule with Ecdysone receptor (Locusta migratoria, UniProt O97095+Q6V7U7)? CCc1ccc(C(=O)NN(C(=O)c2cc(C)cc(C)c2)C(C)(C)C)cc1 [TEBUFENOZIDE]
A) 4.00
